Provenance of the data: patent US4207326A

test system: T. mentagrophytes; assay: Antifungal activity: Minimum Inhibitory Concentration; type: cell-based, Trichophyton mentagrophytes NCPF 410; details: Trichophyton mentagrophytes, T. mentagrophytes, Day 2; 27° C., one week; read-out: Minimum Inhibitory Concentration
Would you mind telling me the reported MIC of each entry?
The figure you give is taken to be in µg/mL; do not add the unit.

Record for CCCCCCCCCCCCCCCCn1c(C)cc(C)[n+]1C under target or system T. mentagrophytes: MIC reported as 5

Record for CCCCCCCCCCCC[n+]1c(C)cc(C)n1Cc1ccc(Cl)cc1Cl.[Br-] under target or system T. mentagrophytes: MIC reported as 1

Record for CCCCCCCCCCCCCCCCn1ccc[n+]1C under target or system T. mentagrophytes: MIC reported as 1

Record for CCCCCCCCCCCC[n+]1c(C)cc(C)n1Cc1ccc(Cl)cc1.[Br-] under target or system T. mentagrophytes: MIC reported as 5

Record for CCCCCCCCCCCCCCn1ccc[n+]1C under target or system T. mentagrophytes: MIC reported as 5

Record for CCCCCCCCCCCCCC[n+]1c(C)cc(C)n1Cc1ccc([N+](=O)[O-])cc1.[Br-] under target or system T. mentagrophytes: MIC reported as 10

Record for CCCCCCCCCCCCn1c(C)cc(C)[n+]1C under target or system T. mentagrophytes: MIC reported as 50

Record for C=CCn1c(C)cc(C)[n+]1CCCCCCCCCCCCCCCC.[Br-] under target or system T. mentagrophytes: MIC reported as 5

Record for CCCCCCCCCCCCn1ccc[n+]1C under target or system T. mentagrophytes: MIC reported as 5

* * *

Would you mind telling me the reported MIC of each entry?
tested on: C. albicans; assay: Antimycotic activity: Minimum Inhibitory Concentration; format: cell-based, Candida albicans ATCC 10231; conditions: Candida albicans, pH 5.5, C. albicans, Day 2; pH 5.5, 37° C., 72 hours; read-out: Minimum Inhibitory Concentrations
The figure you give is taken to be in µg/mL; do not add the unit.

// MIC value for CCCCCCCCCCCCCCCCn1ccc[n+]1C [Example 3-D] : 1

// MIC value for CCCCCCCCCCCCCCCCn1c(C)cc(C)[n+]1C [Example 2] : 1

// MIC value for C=CCn1c(C)cc(C)[n+]1CCCCCCCCCCCCCCCC.[Br-] [Example 7] : 1

// MIC value for CCCCCCCCCCCC[n+]1c(C)cc(C)n1Cc1ccc(Cl)cc1.[Br-] [Example 6-E] : 5

// MIC value for CCCCCCCCCCCCn1c(C)cc(C)[n+]1C [Example 1] : 50

// MIC value for CCCCCCCCCCCCn1ccc[n+]1C [Example 3-E] : 50

// MIC value for CCCCCCCCCCCCCC[n+]1c(C)cc(C)n1Cc1ccc([N+](=O)[O-])cc1.[Br-] [Example 6-D] : 5

// MIC value for CCCCCCCCCCCCCCn1ccc[n+]1C [Example 3-G] : 5

// MIC value for CCCCCCCCCCCC[n+]1c(C)cc(C)n1Cc1ccc(Cl)cc1Cl.[Br-] [Example 6-B] : 5

* * *

Tested on: M. canis
Assay: Antifungal activity: Minimum Inhibitory Concentration
Format: cell-based, Microsporum canis NCPF 351
Conditions: Microsporum canis, M. canis, Day 1; 27° C., one week; read-out: Minimum Inhibitory Concentration
Protocol: The antimicrobial activity was determined by inoculation of the test microorganism into suitable growth media containing solutions of the compounds at concentrations of 100, 50, 10, 5, 1.0, 0.5 and 0.1 μg/ml. […] After incubation the antimicrobial activity was recorded as the Minimal Inhibitory Concentration (M.I.C.), i.e., the lowest concentration preventing macroscopically visible growth, for each test compound against each organism. […]
Would you mind telling me the reported MIC of each entry?
The figure you give is taken to be in µg/mL; do not add the unit.

Record for CCCCCCCCCCCCCCCCn1c(C)cc(C)[n+]1C [Example 2] under target or system M. canis: MIC reported as 10

Record for CCCCCCCCCCCCCCn1ccc[n+]1C [Example 3-G] under target or system M. canis: MIC reported as 10

Record for CCCCCCCCCCCC[n+]1c(C)cc(C)n1Cc1ccc(Cl)cc1Cl.[Br-] [Example 6-B] under target or system M. canis: MIC reported as 5

Record for CCCCCCCCCCCC[n+]1c(C)cc(C)n1Cc1ccc(Cl)cc1.[Br-] [Example 6-E] under target or system M. canis: MIC reported as 1

Record for CCCCCCCCCCCCCC[n+]1c(C)cc(C)n1Cc1ccc([N+](=O)[O-])cc1.[Br-] [Example 6-D] under target or system M. canis: MIC reported as 10

Record for CCCCCCCCCCCCn1ccc[n+]1C [Example 3-E] under target or system M. canis: MIC reported as 10

Record for CCCCCCCCCCCCn1c(C)cc(C)[n+]1C [Example 1] under target or system M. canis: MIC reported as 5

Record for CCCCCCCCCCCCCCCCn1ccc[n+]1C [Example 3-D] under target or system M. canis: MIC reported as 5

Record for C=CCn1c(C)cc(C)[n+]1CCCCCCCCCCCCCCCC.[Br-] [Example 7] under target or system M. canis: MIC reported as 5
